# protocol.details: A CellTox Green Cytotoxicity Assay to monitor cytotoxicity in HepG2 cells - 16 hour (AID 1224876); also: nearly all actives have a fitted effect of over 45% in size
# conditions: CellTox Green fluorescence; series mostly up to 76.8 µM
Inconclusive results are not listed. The source made the active and inactive calls. Calls follow the shape of the dose curve; as a rule, active = well fitted activation curve with a large enough effect in the repeat runs; inconclusive = weak or mixed curves; inactive = flat fitted curve, though single readings scatter.
The reply should name one outcome from active, inactive

Check out these entries, answers already filled in.
CN1C(=O)N(c2ccccc2Br)Cc2cnc(Nc3ccc4c(c3)OCC(CO)O4)nc21 (centres undefined); inactive
COC(=O)C1=C(C)NC(C)=C(C(=O)O[C@@H]2CCCN(Cc3ccccc3)C2)[C@@H]1c1cccc([N+](=O)[O-])c1; inactive
C=C(C)CCCC(C)CCO (centres undefined); inactive
c1ccc2sc(SN(C3CCCCC3)C3CCCCC3)nc2c1; inactive
CC(C)C=O; inactive
Nc1nnc(-c2ccc([N+](=O)[O-])o2)o1; inactive
Cc1[nH]cnc1CN1CCc2c(c3ccccc3n2C)C1=O; inactive
CC(=O)c1ccc([N+](=O)[O-])cc1; inactive

In: Can you look up the reported call for c1cc(N(CC2CO2)CC2CO2)ccc1Cc1ccc(N(CC2CO2)CC2CO2)cc1 (centres undefined) for me?
Out: inactive

In: Can you look up the reported call for COC(=O)CCS for me?
Out: inactive

====

# protocol.details: qHTS assay to identify small molecule antagonists of the constitutive androstane receptor (CAR) signaling pathway - cell viability counter screen (AID 1224837); also: nearly all actives have a fitted effect of over 45% in size
# conditions: HepG2-CYP2B6-hCAR viability, CellTiter-Fluor, 23 h, co-treated with 50 nM CITCO; series mostly up to 92.4 µM
Inconclusive results are not listed. Active and inactive are the calls of the source. Calls come from the whole dose curve; as a rule, active = well fitted cell-killing curve with a large enough effect in the repeat runs; inconclusive = weak or mixed curves, or effect the other way; inactive = flat fitted curve, though single readings scatter.
The reply should name one outcome from YES for active, NO for inactive

In: Can you look up the reported call for O=c1c(O)c(-c2ccc(O)cc2)oc2cc(O)cc(O)c12 for me?
Out: NO

In: Can you look up the reported call for CCCCCCCCCI for me?
Out: NO

In: Can you look up the reported call for C[C@H]1c2cccc(O)c2C(O)=C2C(=O)[C@]3(O)C(O)=C(C(N)=O)C(=O)[C@@H](N(C)C)[C@@H]3[C@@H](O)[C@@H]21 for me?
Out: NO

====

# protocol.details: qHTS assay to identify small molecule agonists of the farnesoid-X-receptor (FXR) signaling pathway - cell viability counter screen (AID 743218); also: nearly all actives have a fitted effect of over 45% in size
# conditions: FXR-bla HEK293T viability, CellTiter-Glo luminescence, 16 h; series mostly up to 62.6 µM
Results filed as inconclusive are left out. Active and inactive are the calls of the source. Calls come from the whole dose curve; as a rule, active = well fitted cell-killing curve with a large enough effect in the repeat runs; inconclusive = weak or mixed curves, or effect the other way; inactive = no such curve, though single readings can be large or run the other way.
The reply should name one outcome from Y for active, N for inactive

In: Can you look up the reported call for CC1(C)S[C@@H]2[C@H](NC(=O)C(c3ccccc3)S(=O)(=O)O)C(=O)N2[C@H]1C(=O)O (some centres undefined) for me?
Out: N

In: Can you look up the reported call for Oc1ccc(Cl)c2cccnc12 for me?
Out: N

In: Can you look up the reported call for COC(=O)CCS for me?
Out: N

In: Can you look up the reported call for O=C(O)CCC(=O)C(=O)O for me?
Out: N

In: Can you look up the reported call for CC1=C(CC=O)C(C)(C)CCC1 for me?
Out: N

In: Can you look up the reported call for CC(=O)[C@H]1[C@H](C#N)C[C@H]2[C@@H]3CC=C4C[C@@H](O)CC[C@]4(C)[C@H]3CC[C@@]21C for me?
Out: N

In: Can you look up the reported call for Cc1cc(=O)c2c(O)c3c(O)cc(=O)c4c3c3c(cc(O)c1c23)C(C)(C)C=4O for me?
Out: Y

In: Can you look up the reported call for O=C(O)CCCCCCCCCCCBr for me?
Out: N
